- System: Staphylococcus aureus
- assay.details: Ratio of MIC for quinolone-resistant Staphylococcus aureus MS5935 to MIC for quinolone-sensitive Staphylococcus aureus MS5935
- Format: functional
Reported Ratio by item:
readout.label: Ratio

{"compound": "COc1ccc2ncc(F)c(C/C(=N/O)C34CCC(NCc5ccc6c(n5)NC(=O)CO6)(CC3)CO4)c2n1", "readout.label": "Ratio", "experimental.result": "<4"}
{"compound": "COc1ccc2ncc(F)c([C@H]3OC(=O)O[C@@H]3C34CCC(NCc5ccc6c(n5)NC(=O)CO6)(CC3)CO4)c2n1 (single isomer, unassigned; (+))", "readout.label": "Ratio", "experimental.result": "<4"}
{"compound": "C[C@H]1COc2c(N3CCN(C)CC3)c(F)cc3c(=O)c(C(=O)O)cn1c23.C[C@H]1COc2c(N3CCN(C)CC3)c(F)cc3c(=O)c(C(=O)O)cn1c23.O [LEVOFLOXACIN]", "readout.label": "Ratio", "experimental.result": ">64"}
{"compound": "COc1ccc2ncc(F)c([C@@H](O)[C@H](O)C34CCC(NCc5ccc6c(n5)NC(=O)CO6)(CC3)CO4)c2n1", "readout.label": "Ratio", "experimental.result": "<4"}
